assay: method code pH-metric titration, from DOI: 10.1002/(sici)1096-9063(199607)47:3<265::aid-ps416>3.0.co;2-f
condition.label: pH 9.0
measured.endpoint: logD
Number only, please.

State the recorded logD for this entry: CC(Cc1ccc(C(C)(C)C)cc1)CN1C[C@@H](C)O[C@@H](C)C1 (stereo partly specified)
4.93

---

measured.endpoint: logP
Number only, please.

State the recorded logP for this entry: CC(C)NCC(COc1cccc2ccccc12)OC(=O)C(C)C (configuration not stated)
3.52

State the recorded logP for this entry: CC(C)NCC(COc1cccc2ccccc12)OC(=O)C1CC1 (configuration not stated)
3.68

---

assay: method code SF-HPLC, from DOI: 10.1023/a:1007514121527, PMID: 10714601
condition.label: pH 7.4
measured.endpoint: logD
Number only, please.

State the recorded logD for this entry: COc1cc2oc(=O)cc(CC(NC(C)=O)C(N)=O)c2cc1OC (stereo unspecified)
-0.13

---

Can you tell me logP for the items I'm about to list?
Number only, please.

State the recorded logP for this entry: CC(=O)C(C(=O)ON=C(C)C12CC3CC(CC(C3)C1)C2)c1ccccc1 (centres undefined)
4.64

State the recorded logP for this entry: CCC(=O)OC(C(=O)NC12CC3CC(CC(C3)C1)C2)c1ccccc1 (centres undefined)
3.72

State the recorded logP for this entry: CC(=O)OC(C(=O)ON=C1C2CC3CC(C2)CC1C3)c1ccccc1 (centres undefined)
3.28

State the recorded logP for this entry: CC(=O)OC(C(=O)NC12CC3CC(CC(C3)C1)C2)c1ccccc1 (centres undefined)
3.21

---

assay: method code SF-AS, from DOI: 10.1016/0378-5173(85)90003-1
condition.label: pH 4.6
measured.endpoint: logD
Number only, please.

State the recorded logD for this entry: CC(=O)OCC1=C(C(=O)OCOC(=O)C(C)(C)C)N2C(=O)C(NC(=O)CSc3ccncc3)C2SC1 (configuration not stated)
1.63

State the recorded logD for this entry: CC(C)(C)C(=O)OCOC(=O)C1=C(CSc2nncs2)CSC2C(NC(=O)Cn3cnnn3)C(=O)N12 (configuration not stated)
1.45

---

assay: method code SF, from Kim, K.; Kim, J.; Kim, Y. (1997). Study on physicochemical properties of pesticides. II. Hanguk Nonghwa Hakhoe Chi, 40(1)76-79.
measured.endpoint: logP

State the recorded logP for this entry: CCOP(=S)(OCC)Oc1cc(C(F)(F)F)nn1-c1ccccc1
5.24

---

assay: method code SF-HPLC, from DOI: 10.1016/0378-5173(86)90071-2
condition.label: pH 7.4
measured.endpoint: logD

State the recorded logD for this entry: CC(C)(C)C(=O)OCOc1ccccc1C(N)=O
2

State the recorded logD for this entry: CC(=O)OCOc1ccccc1C(N)=O
0.52

State the recorded logD for this entry: CCCC(=O)OCOc1ccccc1C(N)=O
1.66

---

Can you tell me logD for the items I'm about to list?
assay: method code SF-AS, from Frater-Schröder, M.; Alder, S.; Zbinden, G. (1976). Neurotoxic effects of pyridoxine and analogs in rats. Proc. Eur. Soc. Toxicol, 17, 277-284.
condition.label: pH 7.4
Number only, please.

State the recorded logD for this entry: Cc1ncc(CO)c(Cc2ccc(N(C)C)cc2)c1O
0.81

State the recorded logD for this entry: CCCCN(CCCC)Cc1c(CO)cnc(C)c1O
1.69

State the recorded logD for this entry: Cc1ncc(CO)c2c1OC1=CCCCC1=C2
1.98

State the recorded logD for this entry: CCCCOCc1c(CO)cnc(C)c1O
1.34

State the recorded logD for this entry: Cc1ncc(CO)c(COCCC(C)C)c1O
0.83

---

assay: method code SF, from PMID: 718082
measured.endpoint: logP
Number only, please.

State the recorded logP for this entry: CNC(=O)c1c(I)c(NC(C)=O)c(I)c(OCC2OC(O)C(O)C(O)C2O)c1I (centres undefined)
-1.26

State the recorded logP for this entry: CC(=O)Nc1c(I)c(NC(C)=O)c(I)c(C(=O)O)c1I
-1.05

State the recorded logP for this entry: CNC(=O)c1c(I)c(NC(C)=O)c(I)c(C(=O)O)c1I
-1.15

State the recorded logP for this entry: OC[C@H]1O[C@@H](Oc2cc(O[C@@H]3O[C@H](CO)[C@@H](O)[C@H](O)[C@H]3O)c(I)c(O[C@@H]3O[C@H](CO)[C@@H](O)[C@H](O)[C@H]3O)c2I)[C@H](O)[C@@H](O)[C@@H]1O
-2.22

---

assay: method code SF-AS, from DOI: 10.1021/acs.jmedchem.5b00731, PMID: 26397825
condition.label: pH 7.4
Can you tell me logD for the items I'm about to list?
Number only, please.

State the recorded logD for this entry: COCCOCCOCCOCCOCN(C)c1ccc(C=C2CC(=Cc3ccc(N(C)COCCOCCOCCOCCOC)cc3)C2=O)cc1
2.54

State the recorded logD for this entry: COCCOCCOCCOCCOCN(C)c1ccc(C=C2CCC(=Cc3ccc(N(C)COCCOCCOCCOCCOC)cc3)C2=O)cc1
2.73

---

Can you tell me logP for the items I'm about to list?
Number only, please.

State the recorded logP for this entry: COP(N)(=S)Oc1ccccc1C(=O)OC(C)C (centres undefined)
2.7

State the recorded logP for this entry: COc1ccc(C(OC(C)=O)C(Cl)(Cl)Cl)cc1 (centres undefined)
3.72

State the recorded logP for this entry: CC1(C)[C@H](C(=O)OCc2coc(Cc3ccccc3)c2)[C@@H]1/C=C1/CCSC1=O
4.31

State the recorded logP for this entry: CNC(=O)ON=C(CS(C)=O)C(C)(C)C (centres undefined)
2.75

---

assay: method code SF-HPLC, from DOI: 10.1016/j.bmcl.2004.01.062, PMID: 15026043
condition.label: pH 5.5
measured.endpoint: logD

State the recorded logD for this entry: CN(C)C(=O)Oc1ccc(CC(NC(=O)C2N(S(=O)(=O)c3cnn(C)c3)CSC2(C)C)C(=O)OCCOc2ccccc2)cc1 (stereo unspecified)
3.27

---

assay: method code SF, from DOI: 10.1093/jnci/60.2.345, PMID: 621753
measured.endpoint: logP
Number only, please.

State the recorded logP for this entry: O=NN(CCCl)C(=O)NCCCCNC(=O)N(CCCl)N=O
0.9

---

assay: method code SF-HPLC, from DOI: 10.1021/jm00109a018, PMID: 2033591
condition.label: pH 7.0
measured.endpoint: logD
Number only, please.

State the recorded logD for this entry: N=c1c2ncn([C@@H]3O[C@H](CO)C[C@@H]3F)c2ncn1O
-1.38

---

assay: method code SF-AS, from DOI: 10.1016/j.ejps.2010.09.003, PMID: 20854904
condition.label: pH 10.0
measured.endpoint: logD
Number only, please.

State the recorded logD for this entry: CN(C)CCOC(=O)c1ccccc1
1.76

State the recorded logD for this entry: O=C(CCN1CCOCC1)c1ccccc1
1.24

---

measured.endpoint: logP

State the recorded logP for this entry: CCCCCCCCCCCCC(Br)C(=O)OCC1OC(n2cc(C)c(=O)[nH]c2=O)CC1N=[N+]=[N-] (stereo unspecified)
8.14

---

measured.endpoint: logP
Number only, please.

State the recorded logP for this entry: COc1c(OC)c(OC(C)=O)c2cc(NC(C)=O)ccc2c1OC(C)=O
2

---

assay: method code SF-HPLC, from DOI: 10.1023/a:1015828802490, PMID: 2308896
condition.label: pH 2.0
measured.endpoint: logD
Number only, please.

State the recorded logD for this entry: COc1c(C)c2c(c(O)c1C/C=C(\C)CCC(=O)O)C(=O)OC2
2.76

---

assay: method code SF-AS, from DOI: 10.1006/pest.1994.1014
measured.endpoint: logP
Number only, please.

State the recorded logP for this entry: CC(C)(C)N(NC(=O)c1ccccc1Cl)C(=O)c1ccccc1Cl
2.75

State the recorded logP for this entry: Cc1ccccc1C(=O)NN(C(=O)c1ccccc1Cl)C(C)(C)C
2.91

---

assay: method code SF-AS, from DOI: 10.1007/bf00165040, PMID: 3033523
condition.label: pH 7.4
Can you tell me logD for the items I'm about to list?
Number only, please.

State the recorded logD for this entry: CSc1nc2c(N)ncnc2n1C1OC2COP(=O)(OCc3ccccc3)OC2C1O (stereo unspecified)
1.62

State the recorded logD for this entry: Nc1ncnc2c1nc(Br)n2C1OC2COP(=O)(Oc3ccccc3)OC2C1O (stereo unspecified)
1.58

State the recorded logD for this entry: Nc1ncnc2c1nc(Sc1ccc(Cl)cc1)n2C1OC2COP(=O)(OCc3ccccc3)OC2C1O (stereo unspecified)
2.24

State the recorded logD for this entry: CC(C)(C)Sc1nc2c(N)ncnc2n1C1OC2COP(=O)(Oc3ccccc3)OC2C1O (stereo unspecified)
2.05

State the recorded logD for this entry: Nc1ncnc2c1nc(SCc1ccccc1)n2[C@@H]1O[C@@H]2COP(=O)(O)O[C@H]2[C@H]1O
-1.15

State the recorded logD for this entry: Nc1ncnc2c1nc(Sc1ccccc1)n2C1OC2COP(=O)(OCc3ccccc3)OC2C1O (stereo unspecified)
1.92
